# Subject of test: caspase-3 (Homo sapiens, UniProt P42574)
# Construct: recombinant active caspase-3 enzyme
# Sequence (P42574 29-175): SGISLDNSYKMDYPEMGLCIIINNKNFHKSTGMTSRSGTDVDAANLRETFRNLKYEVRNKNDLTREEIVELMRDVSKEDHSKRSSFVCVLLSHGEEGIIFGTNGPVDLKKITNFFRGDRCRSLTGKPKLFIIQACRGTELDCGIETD
# Sequence (P42574 176-277): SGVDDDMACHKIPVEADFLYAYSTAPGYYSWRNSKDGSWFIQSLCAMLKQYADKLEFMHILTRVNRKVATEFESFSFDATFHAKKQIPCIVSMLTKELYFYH
# Protocol details: recombinant caspase-3 activity assay with luminogenic Z-DEVD-aminoluciferin (Caspase-Glo […]), dose response
Quantity: IC50 (µM)
Enter your answer as a number in µM; do not include the unit.

State the measured IC50 (caspase-3 (Homo sapiens, UniProt P42574)) of O=c1c(O)c(-c2ccc(O)cc2)oc2cc(O)cc(O)c12
5.65
